Each recorded value in this set is attributed to ChEMBL document CHEMBL5260825.

tested on: ZR-75-1; experiment: Antiproliferative activity against human ZR-75-1 cells assessed as cell growth inhibition; type: functional, cell-based
property.measured: IC50 (µM)
Answers are plain numbers, in µM.

Recorded result, CC(C)=CCC[C@]1(C)CCC[C@]2(C)[C@@H](C=O)C(C=O)=CC[C@@H]12 , IC50: 5.7

====

Kindly supply the reported IC50 values for the records listed here.
system: KB; assay: Antiproliferative activity against human KB cells assessed as cell growth inhibition; assay type: functional, cell-based
Numbers only, in µg/mL.

{"smiles.repr": "CC(=O)OCC1=CO[C@H](OC(C)=O)[C@@H]2[C@H]1[C@@H]1[C@H](CC[C@@]23CO3)C1(C)C", "property.measured": "IC50", "unit.of.measurement": "µg/mL", "quantitative.readout": 0.28}

Now consider a different compound.
Measured IC50, C=C1C(=O)O[C@H]2C[C@@]3(C)CCC=C(C)[C@@H]3C[C@@H]12 : 3.3

====

system: RAW264.7; test: Inhibition of LPS-induced NO production in mouse RAW264.7 cells; format: functional, cell-based
I'd be grateful if you could share measured pIC50 for these entries.
Give bare numbers, as −log10 of the molar value.

{"compound": "CC1(C)[C@H]2CC[C@]3(C)Oc4cc(O)cc(CCc5ccccc5)c4[C@H]1[C@@H]23", "experimental.target": "RAW264.7", "pIC50": 5.35}
{"compound": "C[C@H]1C(O)(O)C[C@@]2(C)[C@@H](CC[C@@H]3O[C@@]32C)[C@]1(C)CCc1ccoc1", "experimental.target": "RAW264.7", "pIC50": 5.35}
{"compound": "CC1=CCc2c(O)cc(CCc3ccccc3O)cc2OC1", "experimental.target": "RAW264.7", "pIC50": 5.35}
{"compound": "C=C1C[C@@]23CC(OC(=O)/C=C/c4ccc(O)c(O)c4)[C@@H]1[C@@]2(C)CCCC3(C)C (stereo partly specified)", "experimental.target": "RAW264.7", "pIC50": 5.20}
{"compound": "CC(C)=CCC/C(C)=C/Cc1c(O)cc(O)cc1CCc1ccccc1", "experimental.target": "RAW264.7", "pIC50": 5.35}

For each of the compounds below, note its pIC50.
1. CC1=CCc2c(O)cc(CCc3ccccc3)cc2OC1
2. C[C@@H]1CC[C@H]2C(=O)c3ccoc3C[C@@]12C
3. C[C@H]1CC[C@@]2(C)[C@@H](CC[C@@H]3O[C@@]32C)[C@]1(C)CCc1ccoc1
4. Oc1cc(CCc2ccccc2O)c2ccoc2c1
5. CC(C)=CCC[C@@]1(C)C=Cc2c(CCc3ccccc3)cc(O)cc2O1

5.35
5.77
5.35
5.35
5.35

So for COC(=O)[C@@]12Cc3occc3C(=O)[C@]1(C)CC[C@H]2C , the logged pIC50 turned out to be 4.34

====

Exercise: for every item that follows, state its recorded LC50.
experiment: Toxicity in brine shrimp assessed as lethality; conditions: artemia salina
Answers are plain numbers, in ppm.

{"compound": "COc1ccc(CCc2c(Cl)ccc(O)c2Cl)cc1Cl", "unit.of.measurement": "ppm", "LC50": 0.42}
{"compound": "CC(=O)N1CCN(c2ccc(OCC3COC(Cn4ccnc4)(c4ccc(Cl)cc4Cl)O3)cc2)CC1 (centres undefined)", "unit.of.measurement": "ppm", "LC50": 14.9}
{"compound": "Oc1ccc(CCc2c(Cl)cc(Cl)c(O)c2Cl)cc1Cl", "unit.of.measurement": "ppm", "LC50": 0.42}

Pending compound:
So, COc1ccc(CCc2c(Cl)ccc(O)c2Cl)cc1 ? Its LC50 was 0.42
